// provenance: PubChem BioAssay

- Assayed Target: Voltage-gated potassium channel subunit beta-2 (Rattus norvegicus) (UniProt P62483)
- Sequence (P62483 whole entry, looked up): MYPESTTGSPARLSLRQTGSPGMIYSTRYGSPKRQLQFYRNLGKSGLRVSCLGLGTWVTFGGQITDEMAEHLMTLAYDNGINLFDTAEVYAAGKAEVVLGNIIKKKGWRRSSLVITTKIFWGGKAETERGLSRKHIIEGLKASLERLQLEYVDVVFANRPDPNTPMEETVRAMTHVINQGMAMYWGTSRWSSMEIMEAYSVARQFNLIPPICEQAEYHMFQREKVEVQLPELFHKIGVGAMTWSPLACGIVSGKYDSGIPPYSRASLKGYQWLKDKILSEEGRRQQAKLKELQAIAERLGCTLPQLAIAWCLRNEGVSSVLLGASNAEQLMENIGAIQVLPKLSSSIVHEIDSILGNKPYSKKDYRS
- Test Method Notes: enhancers of rat Kvbeta2 NADPH turnover – biochemical, NADPH fluorescence, primary screen (AID 623);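 also: fluorescence intensity change per second fitted from 20 to 320 s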
- Settings: Recombinant KvBeta, NADPH fluorescence decrease slope, 10 min; at 10 µM; active compounds read low
Experimental Endpoint: NADPH fluorescence slope
One number for each entry.

# Molecule, Test Value
measured = [
    ("CC(C)c1ccc(S(=O)(=O)N2CCN(CCC(=O)Nc3ccc(N(C)C)cc3)CC2)cc1", "-2.3e-05"),
    ("O=C(c1cc2cc(Cl)cc(Cl)c2oc1=O)N1CCOCC1", "-6.7e-05"),
    ("COCCn1nnnc1C(c1ccccc1OC)N1CCc2ccccc2C1 (stereo not drawn)", "-5e-05"),
    ("CN(C)/C=N/c1ncnc2c1cnn2-c1ccc(C(F)(F)F)cn1", "-4.6e-05"),
]

// batch mode: one NADPH fluorescence slope value per listed entry
1. COc1cc(CN2CCC(C(=O)NC3CCCC3)CC2)ccc1O
2. Cc1ccc2c(c1)C(O)(CC(=O)c1ccc3c(c1)OCO3)C(=O)N2 (stereo not drawn)
3. CC1CCCCC1NC(=O)c1ccc(N2CCCC2=O)cc1 (stereo not drawn)
4. CCCC(CCC)C(=O)NCCN1CCOCC1
5. Cc1nnc(SCC(=O)Nc2c(Cl)cccc2Cl)[nH]c1=O
6. c1ccc(CCn2nnnc2CN2CCN(C3CCCC3)CC2)cc1
7. CCOC(=O)c1ccc(S(=O)(=O)Nc2cc(C(C)(C)C)no2)cc1
8. Cc1nc2ncnn2c(C)c1CCC(=O)NCCCN1CCN(c2cccc(Cl)c2)CC1

1: -3.9e-06; 2: -5e-05; 3: 3.4e-05; 4: -3.5e-05; 5: -4.3e-05; 6: -4.3e-05; 7: 5.6e-06; 8: -5.1e-05
